Listed here: items and their measured IC50, FLIPR assay for Ca2+ mobilization.
Molecular target: PAR-2 (on the cells of the FLIPR Ca2+ mobilization assay)
Sequence (P55085 whole entry): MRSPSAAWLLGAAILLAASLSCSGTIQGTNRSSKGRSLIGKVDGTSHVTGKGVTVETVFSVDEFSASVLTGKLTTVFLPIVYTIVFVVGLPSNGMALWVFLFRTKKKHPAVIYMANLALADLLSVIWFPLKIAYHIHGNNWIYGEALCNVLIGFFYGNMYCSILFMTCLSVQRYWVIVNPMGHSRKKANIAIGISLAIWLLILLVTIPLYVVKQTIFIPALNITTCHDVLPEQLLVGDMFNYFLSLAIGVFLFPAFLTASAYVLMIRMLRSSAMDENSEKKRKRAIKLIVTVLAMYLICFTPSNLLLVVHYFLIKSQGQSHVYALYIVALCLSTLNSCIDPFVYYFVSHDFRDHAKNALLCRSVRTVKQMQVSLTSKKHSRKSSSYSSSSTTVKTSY
Assay: cell-based or functional assay

binder: anti-PAR-2 antibody 2C6 (antibody, V domains shown) VH: QVQLVQSGAEVKKPGASVKVSCKASGYTFTGYFFHWVRQAPGQGLEWVGWINPNSGATHFAQKFQGRVTMTRDTSISTAYMELSRLRSDDTAVYYCARDGSNWNRDYGMDVWGQGTTVTVSS VL: QSVLTQPPSASGTPGQRVTISCSGSSSNIGINHVYWYQQLPGTAPKIFIYRNNQRPSGVPDRFSGSKSGTSASLAISGLRSEDEADYYCAVWDDSLSGVVFGGGTKLTVLG
IC50, FLIPR assay for Ca2+ mobilization: > 1000 nM
--
binder: anti-PAR-2 antibody 1C7 (antibody, V domains shown, Human antibody from a XenoMouse hybridoma) VH: EVQLVQSGAEVKKPGESLKISCKGSGYSFTSYWIGWVRQMPGKGLEWMGIIYPGDSDTRYSPSFQGQVTISADKSIRTAYLQWSSLKASDTAMYYCARHKGITGTTFYYDYGMDVWGQGTTVTVSS VL: SYELTQPPSVSVSPGQTARITCSGEALPKQYASWYQQKPGQAPVLVIYKDSERPSGIPERFSGSSSGTTVTLTISGVQAEDEADYYCQSADSNGAYVFGTGTKVTVL
IC50, FLIPR assay for Ca2+ mobilization: 3 nM

Incoming: What IC50, FLIPR assay for Ca2+ mobilization value was documented for this binder, anti-PAR-2 antibody 9B12 (antibody, V domains shown) VH: QVQLVESGGGVVQPGRSLRLSCAASGFTFSSYGMHWVRQAPGKGLEWVAVIWYDGSNKYYADSVKGRFTISRDNSKNTLYLQMNSLRAEDTAVYYCARDLGAAAGTGFDYWGQGTLVTVSS VL: QSVLTQPPSVSAAPGQKVTISCSGSSSNIGNNYVSWYQQLPGTAPKLLIYDNNKRPSGIPDRFSGSKSGTSATLGITGLQTGDEADYYCGTWDSSLSAGVVFGGGTKLTVL ?
Outgoing: > 1000 nM

Incoming: Next: anti-PAR-2 antibody 1B5 (antibody, V domains shown, Human antibody from a XenoMouse hybridoma) VH: EVQLVQSGAEVKKSGESLKISCKGSGYSFSNYWIGWVRQMPGKGLEWMGIIYPGDSDTRYSPSFQGQVTISADKSIRTAYLQWSSLKASDTAMYYCARHKGITGTTFYYDYGMDVWGQGTTVTVSS VL: SYELTQPPSVSVSPGQTARITCSGEALPKQYASWYQQKPGQAPVLVIYRDTERPSGIPERFSGSSSGTTVTLTISGVQAEDEADYYCQSADSNGAYVFGTGTRVTVL
Outgoing: 3 nM
